test: Cytotoxicity assay in MT-4 cells
Format: cell-based, human
measurement-parameters: human, uninfected MT-4 cells, 5 days incubation; read-out: CC50
Each record is given Met if its reported CC50 at 5 days is strictly below 10 µM. Records at or above 10 µM are given Not met.

Examples with answers:
molecule	classification
O=C(NCc1ccc(F)cc1F)c1cn2c(c(O)c1=O)C(=O)N1CCc3cc(Cl)ccc3[C@@H]2C1 [Example 140-2]	Met
O=C(NCc1ccc(F)cc1F)c1cn2c(c(O)c1=O)C(=O)N1CC[C@H](F)C[C@H]2C1 [Example 56-1]	Not met

stdin: Please let me know if O=C(NCc1c(F)cc(F)cc1F)c1cn2c(c(O)c1=O)C(=O)N1CCSC[C@H]2C1 [Example 155-2] shows CC50 at 5 days below 10 µM.
stdout: Not met

stdin: Please let me know if O=C(NCc1ccc(F)c(Cl)c1F)c1cn2c(c(O)c1=O)C(=O)N1CC=CC[C@H]2C1 [Example 58] shows CC50 at 5 days below 10 µM.
stdout: Met

stdin: Please let me know if O=C(NCc1c(F)cc(F)cc1F)c1cn2c(c(O)c1=O)C(=O)N1CC[C@H](F)CC[C@H]2C1 [Example 81-1] shows CC50 at 5 days below 10 µM.
stdout: Not met

Numbers sourced from patent US12227520B2.
